Data provenance is the nanobody polyreactivity screen of Harvey et al. (2022).

- method.description: yeast display, Sf9 membrane polyspecificity reagent, FACS + sequencing; frameworks hold sequencing errors
endpoint: polyreactivity (PSR sort gate)

For orientation, consider the following solved cases.
# sequence, result
rows = [
    ("QVQLVESGGGLVQAGGSLRLSCAASGFTFVYYAKGWYRQAPGKERELVATISGNGGRTYYADSVKGRFTISRDNAKNTVYLQMNSLKPEDTAVYYCAALLYIRSVGYDYWGQGTQVTVSS", "low polyreactivity"),
    ("QVQLVESGGGLVQAGGSLRLSCAASGFTFNRYAMGWYRQAPGKERELVATITSGGNTYYADSVKGRFTISRDNAKNTVYLQMNSLKPEDTAVYYCNKRGWYSVYRRDYWGQGTQVTVSS", "high polyreactivity"),
    ("QVQLVESGGGLVQAGGSLRLSCAASGFTFYWYAMGWYRQAPGKERELVAAITIGGSTYYADSVKGRFTISRDNAKNTVYLQMNSLKPEDTAVYYCNVYGYGTEYDYWGQGTQVTVSS", "high polyreactivity"),
    ("QVQLVESGGGLVQAGGSLRLSCAASGRTFSYYAMGWYRQAPGKERELVAAISSGGSTNYADSVKGRFTISRDNAKNTVYLQMNSLKPEDTAVYYCATSSIWGSGRVRWVTYYYWGQGTQVTVSS", "low polyreactivity"),
]

Switching to the query record.
# polyreactivity (PSR sort gate) of QVQLVESGGGLVQAGGSLRLTCAASGSIFWWYGVGWYRQAPGKERELVADITSGGGTYYADSVKGRFTISRDNAKNTVYLQMNSLKPEDTAVYYCAADDRAYRFDYYFDYWGQGTQVTVSS = low polyreactivity

---

- method.description: yeast display, Sf9 membrane polyspecificity reagent, FACS + sequencing; frameworks hold sequencing errors
endpoint: polyreactivity (PSR sort gate)

For orientation, consider the following solved cases.
# sequence, endpoint, result
data = [
    ("QVQLVESGGGLVQAGGSLRLSCAASGSIFWIYAMGWYRQAPGKERELVATITRRGGSTYYADSVKGRFTISRDNAKNTGYLQMNSLKPEDSAVYYCATEPGYTYLTSYKYDYWGQGTQVTVSS", "polyreactivity (PSR sort gate)", "low polyreactivity"),
    ("QVQLVESGGGLVHAGGSLRLSCAASGFIFDTYAMGWYRQAPGKERELVAAISRSGVRTYYADSVKGRFTISRDNAKNTVYLQMNILKPEDTAVYYCNAALNRYHFGRAFPGVYWGHGTQVTVSS", "polyreactivity (PSR sort gate)", "high polyreactivity"),
    ("QVQLVESGGGLVQAGGSLRLSCAAYGRIFWLYAMGWYRQAPGKERELVAVISWSGGTTYYADSVKGRFTISRDNAKNTVYLQMNSLKPEVTAVYYCAKQGWTSYDYWGQGTQVTVSS", "polyreactivity (PSR sort gate)", "low polyreactivity"),
    ("QVQLVESGGGLVQAGGSLRLSCAASGSTFGYYAMGWYRQAPGKERELVAAITSGGTTNYADSVKGRFTISRDNAKNTVYLQMNSLKPEDTAVYYCNAVGTFVRYWTDGRDGVTYDYWGQGTQVTVSS", "polyreactivity (PSR sort gate)", "low polyreactivity"),
    ("QVQLVDSGGGLVQAGGGLRLSCAASGRIFVKYGMGWYRQAPGKERELVAAISWTGGSTYYADSVKGRFTISRDNEKNTVYLQMNSLKPEDTAVYYCAKSFGIWHARWLTYDYWGQGTQVTVSS", "polyreactivity (PSR sort gate)", "low polyreactivity"),
]

# polyreactivity (PSR sort gate) of QVQLVESGGGLVQAGGSLRLSCVASGRIIPGNAMGGYRQAPGKESELVAAISYGGGSTYYADSVKGRFTISRDNAKNTVYLQMNSLKPADTAVYYCAAASSGEYGYWGQGTQVTVSS = low polyreactivity

# polyreactivity (PSR sort gate) of QVQLVESGGGLVQAGGSLRLSCAASGISFVYYAMGWYRQAPGKERELVAAITSDGGSTYYADSVKGRFTISRDNAKNTVYLQMNSLKPEDTAVYYCAAEWTSWSWWYGWYEFDYWGQGTQVTVSS = high polyreactivity

# polyreactivity (PSR sort gate) of QVQLVESGGCLVQAGGRLRLSCAASGLTLYKNGMGWYRQAPGKERELVAVISRSGGRTYYADSVKGRFTISRDNAKNTVFLHMNSLKPEDTAVYYCAALQYGPRYTYYYWGQGTQVTVSS = high polyreactivity

# polyreactivity (PSR sort gate) of QVQLVESGGGLVQAGGSLRLSCAASGSTFYSYGMGWYRQAPGKERELVAAITEDGDTTYYADSVKGLYTISRDNAKNTVYLQMNSLKPEDTAVYYCAAETYYLDDYWGQATQVTVSS = high polyreactivity

# polyreactivity (PSR sort gate) of QVQLVESGGGLVQAGGSLRLSCAASGRIFYIYTMGWYRQAPGKEREFVAGINWNGGSTYYADSVKGRFTISRDNAKNTVYLQMISLKPEDSEVYYCNADQYWDRYYYWGQGTQVTVSS = low polyreactivity

# polyreactivity (PSR sort gate) of QVQLVESGGGLVQAGGSLRLSCAASGRTFVRNAMGWYRQAPGKERELVAAISVDGSSTYYADSVKGRFTISRDNAKNTVYLQMNSLKPEDTAVYYCNADWDYRDFYDITYDYWGQGTQVTVSS = low polyreactivity
